organism: Rattus norvegicus; test: Open TG-GATES - Regimen: Daily Repeat; type: toxicity, organism-based, Sprague-Dawley; set-up: regimen Daily Repeat, gender Male, age 6 weeks; conditions: in vivo, po, 0 mg/kg, […], tissue Blood, route gavage, dose level Control, time 7 day
measurement.label: MCHC (%)

>  <compound>
CC(=O)Oc1cc(C(C)C)c(OCCN(C)C)cc1C

>  <unit.spec>
%

>  <value>
34.8

$$$$
>  <compound>
C[C@]12CCC(=O)C=C1CC[C@@H]1[C@@H]2CC[C@@]2(C)[C@H]1CC[C@]2(C)O

>  <unit.spec>
%

>  <value>
34.3

$$$$
>  <compound>
CCN1CCCC1CNC(=O)c1cc(S(N)(=O)=O)ccc1OC (configuration not stated) [SULPIRIDE]

>  <unit.spec>
%

>  <value>
33.2

$$$$
>  <compound>
CC(C)(S)[C@@H](N)C(=O)O

>  <unit.spec>
%

>  <value>
32.8

$$$$
>  <compound>
Nc1nc(N)c2nc(-c3ccccc3)c(N)nc2n1

>  <unit.spec>
%

>  <value>
32.5

$$$$
>  <compound>
CC(=N)S [THIOACETAMIDE]

>  <unit.spec>
%

>  <value>
33

$$$$
>  <compound>
CCc1oc2ccccc2c1C(=O)c1cc(I)c(O)c(I)c1

>  <unit.spec>
%

>  <value>
34.1

$$$$

* * *

organism: Rattus norvegicus; assay: Open TG-GATES - Regimen: Single; assay type: toxicity, organism-based, Sprague-Dawley; parameters: regimen Single, gender Male, age 6 weeks; details: in vivo, po, 0 mg/kg, 24 h, tissue Plasma, route gavage, dose level Control
Catalogue of ALT readings, one per entry.

>  <compound>
Oc1ncnc2[nH]ncc12 [ALLOPURINOL]

>  <ALT, IU/L>
31.2

$$$$
>  <compound>
O=C(O)c1cccnc1 [NIACIN]

>  <ALT, IU/L>
45

$$$$
>  <compound>
CCN1CCCC1CNC(=O)c1cc(S(N)(=O)=O)ccc1OC (centres undefined) [SULPIRIDE]

>  <ALT, IU/L>
39.6

$$$$
>  <compound>
CC(C)(S)[C@@H](N)C(=O)O [PENICILLAMINE]

>  <ALT, IU/L>
43

$$$$

* * *

species: Rattus norvegicus; assay: Open TG-GATES - Regimen: Daily Repeat; type: toxicity, organism-based, Sprague-Dawley; design: regimen Daily Repeat, gender Male, age 6 weeks; settings: in vivo, po, 0 mg/kg, […], route gavage, dose level Control, time 7 day
Catalogue of TERMINAL_BW readings, one per entry.

>  <smiles.data>
O=C(N[C@H](CO)[C@H](O)c1ccc([N+](=O)[O-])cc1)C(Cl)Cl

>  <TERMINAL_BW / g>
289.7

$$$$
>  <smiles.data>
C[C@](N)(Cc1ccc(O)c(O)c1)C(=O)O

>  <TERMINAL_BW / g>
238

$$$$
>  <smiles.data>
CN1C(=O)OC(C)(C)C1=O

>  <TERMINAL_BW / g>
282.3

$$$$

* * *

species: Rattus norvegicus; test: Open TG-GATES - Regimen: Single; type: toxicity, organism-based, Sprague-Dawley; design: regimen Single, gender Male, age 6 weeks; conditions: in vivo, po, 0 mg/kg, 9 h, tissue Plasma, route gavage, dose level Control

>  <smiles.data>
C[C@]12CCC(=O)C=C1CC[C@@H]1[C@@H]2CC[C@@]2(C)[C@H]1CC[C@]2(C)O

>  <gamma-GTP (IU/L)>
1.4

$$$$
>  <smiles.data>
CC(C)(S)[C@@H](N)C(=O)O

>  <gamma-GTP (IU/L)>
1.2

$$$$
>  <smiles.data>
Nc1nc(N)c2nc(-c3ccccc3)c(N)nc2n1

>  <gamma-GTP (IU/L)>
1.4

$$$$
>  <smiles.data>
CCC(C)(C)C(=O)O[C@H]1C[C@@H](C)C=C2C=C[C@H](C)[C@H](CC[C@@H]3C[C@@H](O)CC(=O)O3)[C@H]21

>  <gamma-GTP (IU/L)>
1.8

$$$$
>  <smiles.data>
CCSCC[C@H](N)C(=O)O

>  <gamma-GTP (IU/L)>
1

$$$$
>  <smiles.data>
O=C(O)c1cccnc1

>  <gamma-GTP (IU/L)>
1.2

$$$$
>  <smiles.data>
C[C@](N)(Cc1ccc(O)c(O)c1)C(=O)O

>  <gamma-GTP (IU/L)>
1.2

$$$$
>  <smiles.data>
C#C[C@]1(O)CC[C@H]2[C@@H]3CCc4cc(O)ccc4[C@H]3CC[C@@]21C

>  <gamma-GTP (IU/L)>
1.2

$$$$

* * *

species: Rattus norvegicus; experiment: Open TG-GATES - Regimen: Daily Repeat; assay type: toxicity, organism-based, Sprague-Dawley; set-up: regimen Daily Repeat, gender Male, age 6 weeks; details: in vivo, po, 0 mg/kg, […], tissue Plasma, route gavage, dose level Control, time 28 day
Catalogue of TG readings, one per entry.
measurement.label: TG (mg/dL)

>  <molecule>
Oc1ncnc2[nH]ncc12 [ALLOPURINOL]

>  <value>
147.4

$$$$
>  <molecule>
C[C@](N)(Cc1ccc(O)c(O)c1)C(=O)O [METHYLDOPA]

>  <value>
140.8

$$$$
>  <molecule>
CCSCC[C@H](N)C(=O)O [ETHIONINE]

>  <value>
115.2

$$$$
>  <molecule>
C#C[C@]1(O)CC[C@H]2[C@@H]3CCc4cc(O)ccc4[C@H]3CC[C@@]21C [ETHINYL ESTRADIOL]

>  <value>
137.2

$$$$
>  <molecule>
Nc1nc(N)c2nc(-c3ccccc3)c(N)nc2n1

>  <value>
149.6

$$$$
>  <molecule>
CCc1oc2ccccc2c1C(=O)c1cc(I)c(O)c(I)c1 [BENZIODARONE]

>  <value>
164.8

$$$$
>  <molecule>
CCC(C)(C)C(=O)O[C@H]1C[C@@H](C)C=C2C=C[C@H](C)[C@H](CC[C@@H]3C[C@@H](O)CC(=O)O3)[C@H]21 [SIMVASTATIN]

>  <value>
151.4

$$$$
>  <molecule>
CC(C)C(=O)Nc1ccc([N+](=O)[O-])c(C(F)(F)F)c1 [FLUTAMIDE]

>  <value>
60.8

$$$$

* * *

species: Rattus norvegicus; assay: Open TG-GATES - Regimen: Single; format: toxicity, organism-based, Sprague-Dawley; parameters: regimen Single, gender Male, age 6 weeks; settings: in vivo, po, 0 mg/kg, 24 h, tissue Blood, route gavage, dose level Control
Catalogue of Plat readings, one per entry.
measurement.label: Plat (x10_4/uL)

>  <molecule>
Oc1ncnc2[nH]ncc12 [ALLOPURINOL]

>  <measurement.label>
Plat

>  <value>
110.8

$$$$
>  <molecule>
CCSCC[C@H](N)C(=O)O [ETHIONINE]

>  <measurement.label>
Plat

>  <value>
126

$$$$
>  <molecule>
CC(C)C(=O)Nc1ccc([N+](=O)[O-])c(C(F)(F)F)c1 [FLUTAMIDE]

>  <measurement.label>
Plat

>  <value>
126.3

$$$$
>  <molecule>
O=C(O)c1cccnc1 [NIACIN]

>  <measurement.label>
Plat

>  <value>
120.2

$$$$
>  <molecule>
CC(C)(S)[C@@H](N)C(=O)O [PENICILLAMINE]

>  <measurement.label>
Plat

>  <value>
125.8

$$$$
>  <molecule>
C#C[C@]1(O)CC[C@H]2[C@@H]3CCc4cc(O)ccc4[C@H]3CC[C@@]21C [ETHINYL ESTRADIOL]

>  <measurement.label>
Plat

>  <value>
112.7

$$$$
>  <molecule>
Nc1nc(N)c2nc(-c3ccccc3)c(N)nc2n1

>  <measurement.label>
Plat

>  <value>
120.8

$$$$
>  <molecule>
O=C(N[C@H](CO)[C@H](O)c1ccc([N+](=O)[O-])cc1)C(Cl)Cl [CHLORAMPHENICOL]

>  <measurement.label>
Plat

>  <value>
120.8

$$$$
>  <molecule>
CCc1oc2ccccc2c1C(=O)c1cc(I)c(O)c(I)c1 [BENZIODARONE]

>  <measurement.label>
Plat

>  <value>
117.5

$$$$
>  <molecule>
CC(=O)Oc1cc(C(C)C)c(OCCN(C)C)cc1C [MOXISYLYTE]

>  <measurement.label>
Plat

>  <value>
118.6

$$$$
>  <molecule>
C[C@]12CCC(=O)C=C1CC[C@@H]1[C@@H]2CC[C@@]2(C)[C@H]1CC[C@]2(C)O [METHYLTESTOSTERONE]

>  <measurement.label>
Plat

>  <value>
111.5

$$$$
>  <molecule>
CCC(C)(C)C(=O)O[C@H]1C[C@@H](C)C=C2C=C[C@H](C)[C@H](CC[C@@H]3C[C@@H](O)CC(=O)O3)[C@H]21 [SIMVASTATIN]

>  <measurement.label>
Plat

>  <value>
113.8

$$$$
>  <molecule>
CN1C(=O)OC(C)(C)C1=O [TRIMETHADIONE]

>  <measurement.label>
Plat

>  <value>
113.7

$$$$
